biological target: human cathepsin F (Homo sapiens); test: Cathepsin F assay (hCat F); assay type: biochemical; conditions: Z-Phe-Arg-AMC substrate, pH 5.5, 15 min preincubation; read-out: hCat F (IP (nM))
Sequence (Q9UBX1 271-484): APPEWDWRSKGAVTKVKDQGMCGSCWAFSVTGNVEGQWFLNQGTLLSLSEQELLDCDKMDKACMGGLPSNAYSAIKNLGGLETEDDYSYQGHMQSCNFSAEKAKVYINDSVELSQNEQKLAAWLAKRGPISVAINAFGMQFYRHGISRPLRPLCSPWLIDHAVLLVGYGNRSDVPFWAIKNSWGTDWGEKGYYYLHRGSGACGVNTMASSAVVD
Field: label. Allowed values: Satisfied (IC50 < 2000 nM) or Not satisfied (IC50 >= 2000 nM).

Does this molecule meet the criterion IC50 < 2000 nM? N#CC1(NC(=O)[C@@H]2CCCC[C@H]2c2nc(-c3cnc(N)nc3)sc2-c2ccc(N3CCS(=O)(=O)CC3)cc2)CC1
Not satisfied

Does this molecule meet the criterion IC50 < 2000 nM? N#CC1(NC(=O)[C@@H]2CC(F)(F)CC[C@H]2c2nc(-c3ccc(F)cc3)sc2-c2ccc(C(=O)N3CCOCC3)cc2)CC1
Satisfied

Does this molecule meet the criterion IC50 < 2000 nM? Cc1nc([C@@H]2CCCC[C@H]2C(=O)NCC#N)c(-c2ccc(N3CCS(=O)(=O)CC3)cc2)o1
Not satisfied

Does this molecule meet the criterion IC50 < 2000 nM? CS(=O)(=O)c1ccc(-c2oc(-c3ccc(F)cc3)nc2C2CCC(F)(F)CC2C(=O)NCC#N)cc1 (racemic)
Satisfied

Does this molecule meet the criterion IC50 < 2000 nM? CCC(C#N)NC(=O)[C@@H]1CCCC[C@H]1c1nc(-c2ccc(F)cn2)sc1-c1ccc(N2CCS(=O)(=O)CC2)cc1 (single isomer, unassigned) [Example 188]
Not satisfied

Does this molecule meet the criterion IC50 < 2000 nM? CC(C#N)NC(=O)[C@@H]1C[C@@H](F)CC[C@H]1c1nc(-c2cncc(F)c2)sc1-c1ccc(N2CCS(=O)(=O)CC2)cc1 (single isomer, unassigned) [Example 126]
Satisfied

----------
molecular target: human cathepsin K (UniProt P43236); assay: Cathepsin K Assay (hrbCat K); format: biochemical; settings: Z-Leu-Arg-AMC substrate, pH 5.5, 15 min preincubation; read-out: hrbCat K (IP (nM))
metric: IC50 (nM)
Answers are plain numbers, in nM.

Example entries and their recorded answers appear below.
compound	tgt	readout.units	IC50
Cc1nc([C@@H]2CC[C@H](F)C[C@H]2C(=O)NC2(C#N)CC2)c(-c2ccc(N3CCS(=O)(=O)CC3)cc2)s1 [Example 205]	human cathepsin K (UniProt P43236)	nM	6.4
N#CC1(NC(=O)[C@@H]2CCCC[C@H]2c2nc(-c3c(F)cccc3F)sc2-c2ccc(N3CCS(=O)(=O)CC3)cc2)CC1 [Example 94]	human cathepsin K (UniProt P43236)	nM	5.5

For each of the items listed, what is its IC50?
1. Cc1nc([C@@H]2CC[C@H](F)C[C@H]2C(=O)NC2(C#N)CC2)c(-c2ccc(N3CCC(S(C)(=O)=O)CC3)cc2)s1 [Example 243]
2. CC(C)C(C#N)NC(=O)[C@@H]1CCCC[C@H]1c1nc(-c2ccc(F)cn2)sc1-c1ccc(N2CCS(=O)(=O)CC2)cc1 (single isomer, unassigned) [Example 187]
3. CS(=O)(=O)N1CCN(C(=O)c2ccc(-c3sc(-c4ccc(F)cc4)nc3[C@@H]3CCCC[C@H]3C(=O)NC3(C#N)CC3)cc2)CC1 [Example 33]
4. CC(C)[C@@H](C#N)NC(=O)[C@@H]1C[C@@H](F)CC[C@H]1c1nc(C(C)(C)C)oc1-c1ccc(N2CCS(=O)(=O)CC2)cc1 [Example 170]

1. 5.3
2. 3820
3. 47
4. 12
